Quick reference: activity change, negative = cytotoxicity of the listed items.
# assay details: qHTS RealTime-Glo MT Cell Viability Assay in HEK293 cells - 8 hour (AID 1224887); note: top concentration of the series differs between compounds; % is set by controls: 0 for no effect and ±100 for the full control effect; nearly all actives have a fitted effect of over 50% in size
# condition details: RealTime-Glo luminescence; series mostly up to 76.8 µM
Inconclusive results are not listed. The source made the active and inactive calls. Calls come from the whole dose curve; as a rule, active = well fitted cell-killing curve with a large enough effect in the repeat runs; inconclusive = weak or mixed curves, or effect the other way; inactive = flat fitted curve, though single readings scatter.

compound	activity change, negative = cytotoxicity
NC[C@H]1O[C@H](O[C@H]2[C@H](O)[C@@H](O[C@H]3O[C@H](CO)[C@@H](O)[C@H](N)[C@H]3O)[C@H](N)C[C@@H]2N)[C@H](O)[C@@H](O)[C@@H]1O	2.67% [at 6.97 µM] (inactive)

Q. Suppose we examine the compound CCN(CCO)CCCC(C)Nc1ccnc2cc(Cl)ccc12 (centres undefined) ; what activity change, negative = cytotoxicity value has been reported?
A. 0.498% [at 6.97 µM] (inactive)

Q. I am curious: what activity change, negative = cytotoxicity value has been reported for CCCCCCCCCCCCCCCCCBr ?
A. 2.84% [at 15.8 µM] (inactive)

Q. # lookup: activity change, negative = cytotoxicity of O=C(CCN1CCN2CCCC2C1)N1c2ccccc2Sc2ccc(Cl)cc21 (centres undefined)
A. -6.11% [at 15.8 µM] (inactive)
